This section presents compounds with their documented GI50 values.
System: K562
Experiment: NCI tumour cell line growth inhibition, 48 h
The source made the active and inactive calls. No stated cut-off is given here; in the data, active = GI50 up to about 1.1 µM and inactive = higher.

- CC1=NN2C=Nc3c(c(-c4ccc(Cl)cc4)cn3-c3ccc(C)cc3)C2N1 (stereo not given): > 100 µM (inactive)
- CCCCCC(C/C=N/N(C)C)C(O)(C(F)(F)F)C(F)(F)F (stereo not given): 22.5 µM (inactive)
- Nc1nc(CCl)nc(Nc2ccccc2)n1: > 10 µM (inactive)
- CCCCc1ccc(Nc2nc(Cl)c3c(ncn3C3CC(Oc4ccc(C)cc4)C(COc4ccc(C)cc4)O3)n2)cc1 (stereo not given): > 100 µM (inactive)
- COc1cccc2c1CCc1sc(CN3CCN(C)CC3)nc1-2: 31.4 µM (inactive)

Input line: API: value(readout=GI50, system=K562) for record "CCOC(=O)[C@H](CO)NC1=C(Cl)C(=O)c2c(O)ccc(O)c2C1=O"
Output line: > 10 µM (inactive)

Input line: Another: "O=C(Nc1ccccn1)/C(=C\C(=O)c1ccc(Cl)cc1)Nc1ccccc1"
Output line: > 10 µM (inactive)
